All figures here come from paper PMC6309961.

Study Target: UniProt P10635
Sequence (P10635 whole entry): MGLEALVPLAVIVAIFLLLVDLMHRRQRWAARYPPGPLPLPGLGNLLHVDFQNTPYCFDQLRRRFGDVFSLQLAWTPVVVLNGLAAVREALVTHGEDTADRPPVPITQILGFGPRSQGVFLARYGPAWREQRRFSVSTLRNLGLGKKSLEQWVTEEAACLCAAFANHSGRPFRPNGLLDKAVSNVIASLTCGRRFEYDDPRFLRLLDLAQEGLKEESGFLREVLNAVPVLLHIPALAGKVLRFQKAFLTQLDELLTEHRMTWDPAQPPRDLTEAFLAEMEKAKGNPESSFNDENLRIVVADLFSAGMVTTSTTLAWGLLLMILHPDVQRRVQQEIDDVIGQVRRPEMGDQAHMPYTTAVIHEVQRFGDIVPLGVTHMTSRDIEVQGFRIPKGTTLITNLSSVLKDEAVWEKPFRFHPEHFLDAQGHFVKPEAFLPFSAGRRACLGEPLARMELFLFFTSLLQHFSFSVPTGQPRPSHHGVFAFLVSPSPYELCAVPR
Protocol Notes: index substrate turnover in pooled HLM, HPLC
Type: biochemical
Experimental Context: microsomes
pIC50: −log10 of the molar value.

Given Smiles	pIC50
O=c1c(O)c(-c2ccc(O)c(O)c2)oc2cc(O)cc(O)c12	3.63
O=c1cc(-c2ccc(O)c(O)c2)oc2cc(O)cc(O)c12	3.82

* * *

Protein target, amino acids: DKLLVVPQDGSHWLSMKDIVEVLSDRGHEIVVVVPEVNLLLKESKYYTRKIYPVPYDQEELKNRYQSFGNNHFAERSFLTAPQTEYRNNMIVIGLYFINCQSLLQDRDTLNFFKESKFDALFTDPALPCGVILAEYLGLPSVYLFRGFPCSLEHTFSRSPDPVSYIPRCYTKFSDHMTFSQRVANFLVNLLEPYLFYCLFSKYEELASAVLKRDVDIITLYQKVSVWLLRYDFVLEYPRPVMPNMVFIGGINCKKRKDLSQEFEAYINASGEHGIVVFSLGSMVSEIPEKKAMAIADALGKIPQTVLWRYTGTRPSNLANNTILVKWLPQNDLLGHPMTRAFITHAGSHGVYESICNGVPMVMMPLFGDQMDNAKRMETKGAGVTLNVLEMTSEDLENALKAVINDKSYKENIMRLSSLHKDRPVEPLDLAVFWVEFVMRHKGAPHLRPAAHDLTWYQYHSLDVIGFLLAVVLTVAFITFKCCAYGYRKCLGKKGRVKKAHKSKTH

Compound	IC50
O=c1cc(-c2ccc(O)c(O)c2)oc2cc(O)cc(O)c12 [luteolin]	> 250 µM

* * *

Study Target: CYP2B6 (Homo sapiens)
Sequence (P20813 1-491): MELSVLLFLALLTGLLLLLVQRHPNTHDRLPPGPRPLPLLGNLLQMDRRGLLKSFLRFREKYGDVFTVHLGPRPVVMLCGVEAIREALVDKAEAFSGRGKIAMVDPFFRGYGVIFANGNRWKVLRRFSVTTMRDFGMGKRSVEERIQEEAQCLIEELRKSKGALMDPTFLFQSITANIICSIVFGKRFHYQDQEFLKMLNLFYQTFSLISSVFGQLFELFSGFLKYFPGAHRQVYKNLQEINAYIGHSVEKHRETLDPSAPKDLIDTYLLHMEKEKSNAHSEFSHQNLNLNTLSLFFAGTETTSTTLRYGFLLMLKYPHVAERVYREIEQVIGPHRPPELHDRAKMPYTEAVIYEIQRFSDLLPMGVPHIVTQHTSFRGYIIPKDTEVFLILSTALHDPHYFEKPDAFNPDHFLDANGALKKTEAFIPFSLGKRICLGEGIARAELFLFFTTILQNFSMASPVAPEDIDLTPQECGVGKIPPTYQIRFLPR
Protocol Notes: index substrate turnover in pooled HLM, HPLC
Assay type: biochemical
Experimental Context: microsomes

Given Smiles	IC50 (µM)
O=c1cc(-c2ccc(O)c(O)c2)oc2cc(O)cc(O)c12	103
O=c1c(O)c(-c2ccc(O)c(O)c2)oc2cc(O)cc(O)c12	89.2

* * *

Study Target: CYP2E1 (Homo sapiens, UniProt P05181)
Sequence (P05181 whole entry): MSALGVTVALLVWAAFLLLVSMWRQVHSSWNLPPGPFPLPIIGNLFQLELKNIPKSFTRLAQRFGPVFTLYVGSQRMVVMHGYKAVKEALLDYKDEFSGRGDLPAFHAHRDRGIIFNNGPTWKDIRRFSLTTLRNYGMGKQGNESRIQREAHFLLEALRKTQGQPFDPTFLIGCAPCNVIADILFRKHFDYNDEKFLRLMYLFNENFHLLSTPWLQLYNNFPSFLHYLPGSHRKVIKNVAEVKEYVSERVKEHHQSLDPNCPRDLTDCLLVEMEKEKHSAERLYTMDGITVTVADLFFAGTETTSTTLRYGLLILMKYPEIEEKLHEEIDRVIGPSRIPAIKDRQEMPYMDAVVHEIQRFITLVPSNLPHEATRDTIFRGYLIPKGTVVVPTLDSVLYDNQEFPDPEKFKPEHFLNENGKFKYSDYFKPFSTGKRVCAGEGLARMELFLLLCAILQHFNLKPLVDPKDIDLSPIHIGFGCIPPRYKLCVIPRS
Protocol Notes: index substrate turnover in pooled HLM, HPLC
Type: biochemical
Experimental Context: human, microsomes
pIC50: −log10 of the molar value.

Given Smiles	pIC50
O=c1c(O)c(-c2ccc(O)c(O)c2)oc2cc(O)cc(O)c12	4.18
O=c1cc(-c2ccc(O)c(O)c2)oc2cc(O)cc(O)c12	4.05

* * *

Study Target: CYP1A2 (Homo sapiens, UniProt P05177)
Sequence (P05177 2-516): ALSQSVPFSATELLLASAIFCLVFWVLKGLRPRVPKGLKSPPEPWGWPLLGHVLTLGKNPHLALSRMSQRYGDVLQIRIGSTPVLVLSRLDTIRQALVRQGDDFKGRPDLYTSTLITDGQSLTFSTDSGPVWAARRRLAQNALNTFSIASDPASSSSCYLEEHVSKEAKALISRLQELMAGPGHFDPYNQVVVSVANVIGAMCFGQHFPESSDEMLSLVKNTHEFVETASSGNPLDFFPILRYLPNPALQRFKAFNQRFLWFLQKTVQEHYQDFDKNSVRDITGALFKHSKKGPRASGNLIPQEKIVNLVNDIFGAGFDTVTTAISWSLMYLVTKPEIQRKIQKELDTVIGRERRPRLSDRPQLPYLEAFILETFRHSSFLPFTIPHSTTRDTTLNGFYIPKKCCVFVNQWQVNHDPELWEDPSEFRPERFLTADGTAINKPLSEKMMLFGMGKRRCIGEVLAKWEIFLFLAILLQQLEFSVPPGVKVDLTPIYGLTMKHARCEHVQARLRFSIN
Protocol Notes: index substrate turnover in pooled HLM, HPLC
Assay type: biochemical
Experimental Context: microsomes
pIC50: −log10 of the molar value.
Here the recorded pIC50 is given for each entry.

Given Smiles	pIC50
O=c1c(O)c(-c2ccc(O)c(O)c2)oc2cc(O)cc(O)c12	5.28
O=c1cc(-c2ccc(O)c(O)c2)oc2cc(O)cc(O)c12	5.46

* * *

IC50 values for the molecules below.
Study Target: CYP2C8 (Homo sapiens)
Sequence (P10632 whole entry): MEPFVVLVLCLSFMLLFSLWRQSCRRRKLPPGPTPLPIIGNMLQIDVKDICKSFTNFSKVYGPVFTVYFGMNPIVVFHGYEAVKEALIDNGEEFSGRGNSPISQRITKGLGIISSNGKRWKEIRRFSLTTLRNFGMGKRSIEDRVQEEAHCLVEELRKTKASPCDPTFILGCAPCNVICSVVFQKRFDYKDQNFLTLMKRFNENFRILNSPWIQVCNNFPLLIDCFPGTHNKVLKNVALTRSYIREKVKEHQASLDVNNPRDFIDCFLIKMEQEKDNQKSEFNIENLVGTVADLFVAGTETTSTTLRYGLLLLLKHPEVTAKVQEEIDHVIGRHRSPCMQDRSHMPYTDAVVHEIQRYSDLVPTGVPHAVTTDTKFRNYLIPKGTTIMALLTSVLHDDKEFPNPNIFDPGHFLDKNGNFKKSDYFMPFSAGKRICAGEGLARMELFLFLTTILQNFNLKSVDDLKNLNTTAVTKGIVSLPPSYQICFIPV
Protocol Notes: index substrate turnover in pooled HLM, HPLC
Format: biochemical
Experimental Context: microsomes

Given Smiles	Study Target	IC50 (nM)
O=c1c(O)c(-c2ccc(O)c(O)c2)oc2cc(O)cc(O)c12	CYP2C8 (Homo sapiens)	2400
O=c1cc(-c2ccc(O)c(O)c2)oc2cc(O)cc(O)c12	CYP2C8 (Homo sapiens)	2500

* * *

Sequence of the target: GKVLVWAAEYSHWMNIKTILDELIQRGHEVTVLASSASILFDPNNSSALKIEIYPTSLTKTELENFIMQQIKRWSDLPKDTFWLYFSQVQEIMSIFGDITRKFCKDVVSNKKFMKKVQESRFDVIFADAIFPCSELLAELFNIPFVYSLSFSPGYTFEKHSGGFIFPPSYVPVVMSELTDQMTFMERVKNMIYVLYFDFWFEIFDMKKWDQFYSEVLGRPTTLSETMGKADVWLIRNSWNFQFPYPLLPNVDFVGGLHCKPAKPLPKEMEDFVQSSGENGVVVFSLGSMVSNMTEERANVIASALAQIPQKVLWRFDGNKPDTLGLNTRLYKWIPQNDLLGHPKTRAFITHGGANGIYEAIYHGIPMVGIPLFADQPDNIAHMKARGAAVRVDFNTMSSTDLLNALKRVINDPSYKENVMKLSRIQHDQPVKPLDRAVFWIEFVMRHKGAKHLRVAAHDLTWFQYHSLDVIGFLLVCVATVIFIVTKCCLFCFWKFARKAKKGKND
pIC50: −log10 of the molar value.

Molecule	pIC50
O=c1cc(-c2ccc(O)c(O)c2)oc2cc(O)cc(O)c12 [luteolin]	< 3.60

* * *

Study Target: CYP2C19 (Homo sapiens, UniProt P33261)
Sequence (P33261 whole entry): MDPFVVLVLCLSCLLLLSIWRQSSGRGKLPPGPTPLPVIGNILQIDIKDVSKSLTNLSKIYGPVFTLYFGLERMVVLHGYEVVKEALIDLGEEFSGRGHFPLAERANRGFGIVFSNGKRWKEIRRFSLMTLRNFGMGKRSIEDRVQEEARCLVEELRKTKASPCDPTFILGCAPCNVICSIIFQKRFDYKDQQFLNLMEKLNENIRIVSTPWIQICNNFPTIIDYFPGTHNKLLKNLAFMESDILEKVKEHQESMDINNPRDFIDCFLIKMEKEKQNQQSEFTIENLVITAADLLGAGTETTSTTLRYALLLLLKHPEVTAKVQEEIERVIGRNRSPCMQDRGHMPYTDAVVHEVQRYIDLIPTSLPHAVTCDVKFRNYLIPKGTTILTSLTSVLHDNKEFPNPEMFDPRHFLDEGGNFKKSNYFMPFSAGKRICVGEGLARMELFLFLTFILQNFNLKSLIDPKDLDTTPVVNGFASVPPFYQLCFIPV
Protocol Notes: index substrate turnover in pooled HLM, HPLC
Assay type: biochemical
Experimental Context: microsomes

Compound	IC50
O=c1c(O)c(-c2ccc(O)c(O)c2)oc2cc(O)cc(O)c12 [quercetin]	140 µM
O=c1cc(-c2ccc(O)c(O)c2)oc2cc(O)cc(O)c12 [luteolin]	47.9 µM
